Hello, the source for this data is the supplement of paper PMC9170038, in case you need it.

System: K4 kissing-loop RNA reporter;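 further: bound reporter read as fluorescence of individual clusters on recovered sequencing chips by microscopy, with normalized cluster intensities fitted with a binding model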
Test: apparent KD of K4 kissing-loop reporter; higher = weaker reporter binding
Conditions: Eterna round: R107; input ligand: none
observationType: apparent KD of K4 kissing-loop reporter (nM)

• AGUGCACUGUCAGGAUAUAUACAGUGAUGUUGUGUAUGUCAGCAAGUCAAAGACUUGCUAUUUUGUGUAGAAGGGACUGUGUACA [whbob_Ex_FMNB__2th221] = 176
• GUCCACACUGCAGGAUAUGGAGGAAUAGCGAGGGAGUGUGGAAGCACACCUCUGGCAGUGAUGUUGCCAGAAGGGCGGUGCGGCG [Cemaorar] = 76.4
• GUUACGCAUGGAAGGAGCGCUCUCCGGUUGAUUGACACAGUGAUGUUGUGAUUCUACCGUAAGCAGGUAGGUCGCCAUGUGUAAC [Ex Arginine B K4 13] = 1210
• UUGGCCGGACGGGAUACCAGUCAAAUCGUGUGCUUGGGAUGUCUAAGAGCCAGUGAUGUUGGCCCUUGGCAGCCCUCCCAGCUUG [Esleaqu] = 110
• UCACGUGCCAGUGAUGUUGGCGUACGUGAUACCAGAACAAUAAAGUUCCCUUGGCAGCACAAAUAUGCCAAGUUAGAUGUAUGAU [Exclusion Theophylline A GF 3] = 123
• AACGCUGGUGAAUAACACUAGCGAAAAUUCCGAGGACCGGUACGGCCGCCACUCGGCUAACUGCGAGUGAUGUUCGAUAAUAAAA [Mat - Mod of OpenEnded 3 - D9] = 109
